test system: Staphylococcus sp.; experiment: In vitro antibacterial evaluation: minimum inhibitory concentration (MIC), broth dilution method; type: cell-based; conditions: strain GC 4541; broth dilution, 18 hours at 35° C.
experimental_readout: MIC Staphylococcus aureus (GC 4541) (µg/mL)
Value expressed in µg/mL; do not type the unit.

Record excerpt, results attached:
| compound | MIC Staphylococcus aureus (GC 4541) / µg/mL |
| --- | --- |
| CCCCCCCC1OCC2OC(OC3C(CO)OC(Oc4ccc(CC5NC(=O)C(C(C)c6ccccc6)NC(=O)CNC(=O)C(CO)NC(=O)C(C(O)C6CNC(=N)N6C6OC(CO)C(O)C(O)C6O)NC(=O)C(C(O)C6CNC(=N)N6)NC5=O)cc4)C(O)C3O)C(O)C(O)C2O1 (stereo not shown) [Example 109] | 1 |
| CC(c1ccccc1)C1NC(=O)CNC(=O)C(CO)NC(=O)C(C(O)C2CNC(=N)N2C2OC(CO)C(O)C(O)C2O)NC(=O)C(C(O)C2CNC(=N)N2)NC(=O)C(Cc2ccc(OC3OC(CO)C(OC4OC5COC(c6ccc7c(c6)OCCO7)OC5C(O)C4O)C(O)C3O)cc2)NC1=O (stereo not shown) [Example 149] | 2 |

Now for a further compound.
Query :: Form field: reported MIC Staphylococcus aureus (GC 4541) of COc1cccc(C2OC3C(OC4C(CO)OC(Oc5ccc(CC6NC(=O)C(C(C)c7ccccc7)NC(=O)CNC(=O)C(CO)NC(=O)C(C(O)C7CNC(=N)N7C7OC(CO)C(O)C(O)C7O)NC(=O)C(C(O)C7CNC(=N)N7)NC6=O)cc5)C(O)C4O)OC(CO)C(O)C3O2)c1 (single isomer, unassigned) [Example 137a]
Result :: 16

###

system: Streptococcus sp.; experiment: In vitro antibacterial evaluation: minimum inhibitory concentration (MIC), broth dilution method; format: cell-based; details: Streptococcus pyogenes (GC 4563); broth dilution, 18 hours at 35° C.
Hi! Just check whether MIC Streptococcus pyogenes (GC 4563) is below 8 µg/mL. Below gives 1, equal or above gives 0.

Check out these entries, answers already filled in.
| molecule | group |
| --- | --- |
| CC(c1ccccc1)C1NC(=O)CNC(=O)C(CO)NC(=O)C(C(O)C2CNC(=N)N2C2OC(CO)C(O)C(O)C2O)NC(=O)C(C(O)C2CNC(=N)N2)NC(=O)C(Cc2ccc3oc(SCc4ccc(-c5ccccc5)cc4)nc3c2)NC1=O (stereo not shown) | 1 |
| CC(c1ccccc1)C1NC(=O)CNC(=O)C(CO)NC(=O)C(C(O)C2CNC(=N)N2C2OC(CO)C(O)C(O)C2O)NC(=O)C(C(O)C2CNC(=N)N2)NC(=O)C(Cc2ccc3oc(-c4ccc(N(C)C)cc4)nc3c2)NC1=O (stereo not shown) | 0 |
| CC(c1ccccc1)C1NC(=O)CNC(=O)C(CO)NC(=O)C(C(O)C2CNC(=N)N2C2OC(CO)C(O)C(O)C2O)NC(=O)C(C(O)C2CNC(=N)N2)NC(=O)C(Cc2ccc3oc(SCC(=O)c4ccc(Cl)cc4)nc3c2)NC1=O (stereo not shown) | 1 |

Turning now to a further molecule:
Query :: Threshold test, MIC Streptococcus pyogenes (GC 4563) < 8 µg/mL: CC(c1ccccc1)C1NC(=O)CNC(=O)C(CO)NC(=O)C(C(O)C2CN(Cc3ccc4ccccc4c3)C(=N)N2C2OC(CO)C(O)C(O)C2O)NC(=O)C(C(O)C2CNC(=N)N2)NC(=O)C(Cc2ccc(OC3OC(CO)C(OC4OC5COC6(OC5C(O)C4O)C4CC5CC(C4)CC6C5)C(O)C3O)cc2)NC1=O (stereo not shown)
Result :: 1

###

system: Staphylococcus sp.; test: In vitro antibacterial evaluation: minimum inhibitory concentration (MIC), broth dilution method; type: cell-based; conditions: broth dilution, 18 hours at 35° C.
In this section we review reported MIC Staphylococcus aureus (GC 1131) values for a set of compounds.
Value expressed in µg/mL; do not type the unit.

| compound | unit_info | observed |
| --- | --- | --- |
| CC(c1ccccc1)C1NC(=O)CNC(=O)C(CO)NC(=O)C(C(O)C2CNC(=N)N2C2OC(CO)C(O)C(O)C2O)NC(=O)C(C(O)C2CNC(=N)N2)NC(=O)C(Cc2ccc(OC3OC(CO)C(OC4OC(COC(=O)C(c5ccccc5)c5ccccc5)C(O)C(O)C4O)C(O)C3O)cc2)NC1=O (stereo not drawn) [Example 96c] | µg/mL | 0.5 |

Now for a further compound.
Query :: I'm curious: which MIC Staphylococcus aureus (GC 1131) was measured for CCCCCC(=O)OCC1OC(OC2C(CO)OC(Oc3ccc(CC4NC(=O)C(C(C)c5ccccc5)NC(=O)CNC(=O)C(CO)NC(=O)C(C(O)C5CNC(=N)N5C5OC(CO)C(O)C(O)C5O)NC(=O)C(C(O)C5CNC(=N)N5)NC4=O)cc3)C(O)C2O)C(O)C(O)C1O (stereo not drawn) [Example 95b] tested on Staphylococcus sp.?
Result :: 1

###

system: Staphylococcus sp.; assay: In vitro antibacterial evaluation: minimum inhibitory concentration (MIC), broth dilution method; format: cell-based; settings: strain ID-3941; broth dilution, 18 hours at 35° C.
In this section we review reported MIC Coagulase Negative Staphylococcus (ID-3941) values for a set of compounds.
Value expressed in µg/mL; do not type the unit.

| compound | system_tested | observed |
| --- | --- | --- |
| CC(c1ccccc1)C1NC(=O)CNC(=O)C(CO)NC(=O)C(C(O)C2CNC(=N)N2C2OC(CO)C(O)C(O)C2O)NC(=O)C(C(O)C2CNC(=N)N2)NC(=O)C(Cc2ccc(OC3OC(CO)C(OC4OC5COC(C6CCCCC6)OC5C(O)C4O)C(O)C3O)cc2)NC1=O (stereo not drawn) [Example 112] | Staphylococcus sp. | 0.5 |
| CCCCCC1OCC2OC(OC3C(CO)OC(Oc4ccc(CC5NC(=O)C(C(C)c6ccccc6)NC(=O)CNC(=O)C(CO)NC(=O)C(C(O)C6CNC(=N)N6C6OC(CO)C(O)C(O)C6O)NC(=O)C(C(O)C6CNC(=N)N6)NC5=O)cc4)C(O)C3O)C(O)C(O)C2O1 (stereo not drawn) [Example 108] | Staphylococcus sp. | 1 |
| CC(C)CC1OCC2OC(OC3C(CO)OC(Oc4ccc(CC5NC(=O)C(C(C)c6ccccc6)NC(=O)CNC(=O)C(CO)NC(=O)C(C(O)C6CNC(=N)N6C6OC(CO)C(O)C(O)C6O)NC(=O)C(C(O)C6CNC(=N)N6)NC5=O)cc4)C(O)C3O)C(O)C(O)C2O1 (stereo not drawn) [Example 107] | Staphylococcus sp. | 1 |
| CCCC(CCC)C(=O)OCC1OC(Oc2ccc(CC3NC(=O)C(C(C)c4ccccc4)NC(=O)CNC(=O)C(CO)NC(=O)C(C(O)C4CNC(=N)N4C4OC(CO)C(O)C(O)C4O)NC(=O)C(C(O)C4CNC(=N)N4)NC3=O)cc2)C(O)C(O)C1OC1OC(CO)C(O)C(O)C1O (stereo not drawn) [Example 99b] | Staphylococcus sp. | 2 |

Query :: Form field: reported MIC Coagulase Negative Staphylococcus (ID-3941) of CC(c1ccccc1)C1NC(=O)CNC(=O)C(CO)NC(=O)C(C(O)C2CNC(=N)N2C2OC(CO)C(O)C(O)C2O)NC(=O)C(C(O)C2CNC(=N)N2)NC(=O)C(Cc2ccc(OC3OC(CO)C(OC4OC5COC(CC(C)(C)C)OC5C(O)C4O)C(O)C3O)cc2)NC1=O (stereo not drawn) [Example 110]
Result :: 1

###

system: Staphylococcus sp.; assay: In vitro antibacterial evaluation: minimum inhibitory concentration (MIC), broth dilution method; format: cell-based; settings: broth dilution, 5×10^5 CFU/mL, 18 hours at 35° C.
experimental_readout: MIC Staphylococcus aureus (GC 4545) (µg/mL)
Value expressed in µg/mL; do not type the unit.

| compound | system_tested | unit_info | observed |
| --- | --- | --- | --- |
| CC(c1ccccc1)C1NC(=O)CNC(=O)C(CO)NC(=O)C(C(O)C2CNC(=N)N2C2OC(CO)C(O)C(O)C2O)NC(=O)C(C(O)C2CNC(=N)N2)NC(=O)C(Cc2ccc(OC3OC(CO)C(OC4OC5COC(c6ccc(Oc7ccc(C(C)(C)C)cc7)cc6)OC5C(O)C4O)C(O)C3O)cc2)NC1=O (stereo not shown) | Staphylococcus sp. | µg/mL | 4 |
| CC(=O)n1cc(C2OCC3OC(OC4C(CO)OC(Oc5ccc(CC6NC(=O)C(C(C)c7ccccc7)NC(=O)CNC(=O)C(CO)NC(=O)C(C(O)C7CNC(=N)N7C7OC(CO)C(O)C(O)C7O)NC(=O)C(C(O)C7CNC(=N)N7)NC6=O)cc5)C(O)C4O)C(O)C(O)C3O2)c2ccccc21 (stereo not shown) | Staphylococcus sp. | µg/mL | 4 |
| CC(c1ccccc1)C1NC(=O)CNC(=O)C(CO)NC(=O)C(C(O)C2CNC(=N)N2C2OC(CO)C(O)C(O)C2O)NC(=O)C(C(O)C2CNC(=N)N2)NC(=O)C(Cc2ccc(OC3OC(CO)C(OC4OC5COC(c6ccc7ccccc7c6)OC5C(O)C4O)C(O)C3O)cc2)NC1=O (stereo not shown) | Staphylococcus sp. | µg/mL | 1 |

Query :: Form field: reported MIC Staphylococcus aureus (GC 4545) of COc1cc(OC)cc(C2OCC3OC(OC4C(CO)OC(Oc5ccc(CC6NC(=O)C(C(C)c7ccccc7)NC(=O)CNC(=O)C(CO)NC(=O)C(C(O)C7CNC(=N)N7C7OC(CO)C(O)C(O)C7O)NC(=O)C(C(O)C7CNC(=N)N7)NC6=O)cc5)C(O)C4O)C(O)C(O)C3O2)c1 (stereo not shown)
Result :: 2

Query :: Form field: reported MIC Staphylococcus aureus (GC 4545) of Cc1ccc(Oc2ccc(C3OCC4OC(OC5C(CO)OC(Oc6ccc(CC7NC(=O)C(C(C)c8ccccc8)NC(=O)CNC(=O)C(CO)NC(=O)C(C(O)C8CNC(=N)N8C8OC(CO)C(O)C(O)C8O)NC(=O)C(C(O)C8CNC(=N)N8)NC7=O)cc6)C(O)C5O)C(O)C(O)C4O3)cc2)cc1 (stereo not shown)
Result :: 1
